Molecular target: UniProtKB P11387
Sequence (whole entry): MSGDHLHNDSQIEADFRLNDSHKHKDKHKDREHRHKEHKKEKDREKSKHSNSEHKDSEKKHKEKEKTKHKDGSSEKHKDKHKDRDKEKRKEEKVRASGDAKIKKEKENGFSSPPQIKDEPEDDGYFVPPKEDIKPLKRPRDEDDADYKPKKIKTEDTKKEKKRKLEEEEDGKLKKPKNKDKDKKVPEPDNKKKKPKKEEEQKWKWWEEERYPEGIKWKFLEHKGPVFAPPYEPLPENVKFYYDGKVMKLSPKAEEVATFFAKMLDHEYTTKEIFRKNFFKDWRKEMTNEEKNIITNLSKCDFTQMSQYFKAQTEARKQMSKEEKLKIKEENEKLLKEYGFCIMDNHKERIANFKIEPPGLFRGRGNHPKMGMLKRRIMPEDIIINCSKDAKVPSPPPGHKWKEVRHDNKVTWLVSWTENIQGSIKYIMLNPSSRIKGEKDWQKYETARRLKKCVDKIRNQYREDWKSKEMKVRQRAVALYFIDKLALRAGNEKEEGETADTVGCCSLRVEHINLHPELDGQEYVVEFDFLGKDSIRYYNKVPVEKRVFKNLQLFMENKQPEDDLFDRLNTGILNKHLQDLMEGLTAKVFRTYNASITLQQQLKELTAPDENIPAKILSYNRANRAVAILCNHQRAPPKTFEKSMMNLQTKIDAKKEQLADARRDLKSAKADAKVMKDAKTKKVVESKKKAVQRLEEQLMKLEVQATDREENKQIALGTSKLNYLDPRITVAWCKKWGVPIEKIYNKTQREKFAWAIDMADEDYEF
Test: Inhibition of Top1 (unknown origin) at 125 uM using supercoiled pBR322 plasmid DNA as substrate incubated for 15 mins by PI staining based agarose gel electrophoresis analysis
The source made the active and inactive calls. No cut-off for these calls is given here.
measured attribute: inhibition

>>> measured_value("CN1c2ccc(F)cc2C(=O)N2CCc3c([nH]c4ccc(OC(=O)OCc5ccc(B(O)O)cc5)cc34)C21 (stereo unspecified)")
"Active"
>>> measured_value("CN1c2ccccc2C(=O)N2CCc3c([nH]c4ccc(OC(=O)OCc5ccc(B(O)O)cc5)cc34)C21 (stereo unspecified)")
"Active"
>>> measured_value("CN1c2ccc(F)cc2C(=O)N2CCc3c([nH]c4ccc(OC(=O)OCc5ccc(B6OC(C)(C)C(C)(C)O6)cc5)cc34)C21 (stereo unspecified)")
"Active"
>>> measured_value("CN1c2ccccc2C(=O)N2CCc3c([nH]c4ccc(OC(=O)OCc5ccc(B6OC(C)(C)C(C)(C)O6)cc5)cc34)C21 (stereo unspecified)")
"Active"
>>> measured_value("CN1c2ccccc2C(=O)N2CCc3c([nH]c4ccc(OCc5ccc(B(O)O)cc5)cc34)C21 (stereo unspecified)")
"Active"

Reported inhibition of CN1c2ccc(F)cc2C(=O)N2CCc3c([nH]c4ccc(OCc5ccc(B(O)O)cc5)cc34)C21 (stereo unspecified) : Active

====

assay: Inhibition of porcine brain tubulin polymerization measured at 1 min interval for 15 to 30 mins by spectrophotometric method; parameters: species or system Sus scrofa
measured attribute: pIC50
// pIC50 is dimensionless: -log10 of concentration (M)

Reported pIC50 of CN1c2ccccc2C(=O)N2CCc3c([nH]c4ccc(OC(=O)OCc5ccc(B(O)O)cc5)cc34)C21 (stereo unspecified) : 4.59

====

experiment: Metabolic stability in mouse liver microsomes assessed as half life at 1 uM preincubated with compound followed by NADPH addition measured upto 45 mins by LC-MS/MS analysis; type: ADME, Microsome
measured attribute: half-life at 1 µM
Output should be the measured figure followed by the unit it is expressed in.

Past entries and their recorded results:
>>> measured_value("CN1c2ccc(F)cc2C(=O)N2CCc3c([nH]c4ccc(OC(=O)OCc5ccc(B6OC(C)(C)C(C)(C)O6)cc5)cc34)C21 (stereo not drawn)")
"8.36 min"
>>> measured_value("CN1c2ccc(F)cc2C(=O)N2CCc3c([nH]c4ccc(O)cc34)C21 (stereo not drawn)")
"3.69 min"

Reported half-life at 1 µM of CN1c2ccc(F)cc2C(=O)N2CCc3c([nH]c4ccc(OC(=O)OCc5ccc(B(O)O)cc5)cc34)C21 (stereo not drawn) : 0.74 min

====

system: MCF7; experiment: Antiproliferative activity against human MCF7 cells incubated for 72 hrs by CCK8 assay; type: functional, cell-based; details: Homo sapiens, MCF7, 72 h; read-out: IC50
measured attribute: log10 IC50 (log10 of the value in nM)
Scale: decimal log of IC50, IC50 in nM.

Past entries and their recorded results:
>>> measured_value("CN1c2ccccc2C(=O)N2CCc3c([nH]c4ccc(OCc5ccc(B6OC(C)(C)C(C)(C)O6)cc5)cc34)C21 (stereo not given)")
2.20
>>> measured_value("CN1c2ccc(F)cc2C(=O)N2CCc3c([nH]c4ccc(B5OC(C)(C)C(C)(C)O5)cc34)C21 (stereo not given)")
2.98
>>> measured_value("CC[C@@]1(O)C(=O)OCc2c1cc1n(c2=O)Cc2cc3ccccc3nc2-1")
1.92

Reported log10 IC50 of CN1c2ccc(F)cc2C(=O)N2CCc3c([nH]c4ccc(B(O)O)cc34)C21 (stereo not given) : 1.97

Reported log10 IC50 of CN1c2ccccc2C(=O)N2CCc3c(n(C(=O)OC(C)(C)C)c4ccc(OCc5ccc(B6OC(C)(C)C(C)(C)O6)cc5)cc34)C21 (stereo not given) : 3.62

Reported log10 IC50 of CN1c2ccc(F)cc2C(=O)N2CCc3c(n(C(=O)OC(C)(C)C)c4ccc(OCc5ccc(B(O)O)cc5)cc34)C21 (stereo not given) : 3.38

Reported log10 IC50 of CN1c2ccccc2C(=O)N2CCc3c(n(C(=O)OC(C)(C)C)c4ccc(OCc5ccc(B(O)O)cc5)cc34)C21 (stereo not given) : 3.20

Reported log10 IC50 of CN1c2ccc(F)cc2C(=O)N2CCc3c([nH]c4ccc(O)cc34)C21 (stereo not given) : 1.49

Reported log10 IC50 of CN1c2ccc(F)cc2C(=O)N2CCc3c([nH]c4ccc(OCc5ccc(B(O)O)cc5)cc34)C21 (stereo not given) : 1.77

Reported log10 IC50 of CN1c2ccc(F)cc2C(=O)N2CCc3c([nH]c4ccc(OCc5ccc(B6OC(C)(C)C(C)(C)O6)cc5)cc34)C21 (stereo not given) : 1.99

Reported log10 IC50 of CN1c2ccccc2C(=O)N2CCc3c([nH]c4ccc(B5OC(C)(C)C(C)(C)O5)cc34)C21 (stereo not given) : 2.59

====

tested on: MCF7; experiment: Antiproliferative activity against human MCF7 cells incubated for 72 hrs by CCK8 assay; format: functional, cell-based; conditions: Homo sapiens, MCF7, 72 h; read-out: IC50
Reported values of IC50 for individual entries
Entry rule: numbers only, all in nM.

>>> measured_value("CN1c2ccc(F)cc2C(=O)N2CCc3c([nH]c4ccc(OC(=O)OCc5ccc(B6OC(C)(C)C(C)(C)O6)cc5)cc34)C21 (centres undefined)")
33
>>> measured_value("CN1c2ccccc2C(=O)N2CCc3c([nH]c4ccc(OC(=O)OCc5ccc(B(O)O)cc5)cc34)C21 (centres undefined)")
140
>>> measured_value("CN1c2ccccc2C(=O)N2CCc3c([nH]c4ccc(OC(=O)OCc5ccc(B6OC(C)(C)C(C)(C)O6)cc5)cc34)C21 (centres undefined)")
86

Now for the compound whose IC50 we want.
Reported IC50 of CN1c2ccccc2C(=O)N2CCc3c([nH]c4ccc(B(O)O)cc34)C21 (centres undefined) : 160

====

system: MCF7; assay: Antiproliferative activity against human MCF7 cells incubated for 72 hrs by CCK8 assay; assay type: functional, cell-based; details: Homo sapiens, MCF7, 72 h; read-out: IC50
measured attribute: IC50 (nM)
Entry rule: numbers only, all in nM.

Past entries and their recorded results:
>>> measured_value("CN1c2ccccc2C(=O)N2CCc3c([nH]c4ccc(OCc5ccc(B(O)O)cc5)cc34)C21 (centres undefined)")
110
>>> measured_value("CN1c2ccc(F)cc2C(=O)N2CCc3c(n(C(=O)OC(C)(C)C)c4ccc(OCc5ccc(B6OC(C)(C)C(C)(C)O6)cc5)cc34)C21 (centres undefined)")
7850
>>> measured_value("CN1c2ccccc2C(=O)N2CCc3c([nH]c4ccc(O)cc34)C21 (centres undefined)")
270

Now for the molecule whose IC50 we want.
Reported IC50 of CN1c2ccc(F)cc2C(=O)N2CCc3c([nH]c4ccc(OC(=O)OCc5ccc(B(O)O)cc5)cc34)C21 (centres undefined) : 32
